// reported Kb for each item listed
Target: CRFR1 (human CRF receptor 1, corticotropin-releasing factor receptor 1) (Homo sapiens)
Construct: gene CRHR1; receptor expressed in transfected CHO cells (Cerep)
Sequence (P34998 24-415): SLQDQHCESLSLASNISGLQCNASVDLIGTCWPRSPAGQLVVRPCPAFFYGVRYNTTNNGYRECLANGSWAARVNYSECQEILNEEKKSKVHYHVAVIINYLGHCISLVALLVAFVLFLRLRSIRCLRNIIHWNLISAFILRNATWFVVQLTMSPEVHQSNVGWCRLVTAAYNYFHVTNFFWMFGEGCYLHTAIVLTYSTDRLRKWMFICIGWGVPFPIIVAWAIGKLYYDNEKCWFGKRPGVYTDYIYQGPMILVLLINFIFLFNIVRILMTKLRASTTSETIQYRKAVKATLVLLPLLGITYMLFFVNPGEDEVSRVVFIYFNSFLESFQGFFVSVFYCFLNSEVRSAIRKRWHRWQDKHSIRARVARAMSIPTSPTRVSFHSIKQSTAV
Experiment: HTRF cAMP assay, antagonist mode, transfected CHO cells; KB from IC50 by modified Cheng-Prusoff equation
Assay type: cell-based
Output spec: scalar in nM, unitless text.

Field: example entries. Status: answers known.
# molecule, Kb / nM
records = [
    ("COc1ccc(-c2cc(=O)c3c(OC)c(OC)c(OC)c(OC)c3o2)cc1OC", 360),
    ("COc1c(CC=C(C)C)c(O)cc2oc(=O)c(-c3ccc(O)cc3O)cc12", 1300),
    ("CC1(C)[C@@H](O)CC[C@]2(C)[C@H]3C(=O)C=C4[C@@H]5C[C@@](C)(C(=O)O)CC[C@]5(C)CC[C@@]4(C)[C@]3(C)CC[C@@H]12", 350),
]

Here CCCCCCC/C=C/C(=O)CCc1ccc(O)c(OC)c1 [[8]-Shogaol] was tested on CRFR1 (human CRF receptor 1, corticotropin-releasing factor receptor 1) (Homo sapiens), and its Kb came to 1800

Here COc1ccc([C@@H]2CC(=O)c3c(O)cc(O)cc3O2)cc1O was tested on CRFR1 (human CRF receptor 1, corticotropin-releasing factor receptor 1) (Homo sapiens), and its Kb came to 45000

Here O=C(/C=C/c1ccc(O)cc1)c1ccc(O)cc1O was tested on CRFR1 (human CRF receptor 1, corticotropin-releasing factor receptor 1) (Homo sapiens), and its Kb came to 670

Here COc1ccc(-c2cc(=O)c3c(OC)c(OC)c(OC)c(OC)c3o2)cc1 was tested on CRFR1 (human CRF receptor 1, corticotropin-releasing factor receptor 1) (Homo sapiens), and its Kb came to 1500
